cond: in acetonitrile, 303.15 K
observable: solubility (mole fraction)
Keep it simple and answer with nothing but the number.

Asked: Find the recorded solubility (mole fraction) belonging to `C[C@@H]1O[C@@H](OC[C@H]2O[C@@H](Oc3c(-c4ccc(OCCO)c(OCCO)c4)oc4cc(OCCO)cc(O)c4c3=O)[C@H](O)[C@@H](O)[C@@H]2O)[C@H](O)[C@H](O)[C@H]1O` and report it.
Given back: 2.1e-05

###

cond: in n-pentanol, 288.15 K
observable: solubility (mole fraction)

Asked: Find the recorded solubility (mole fraction) belonging to `C[C@@H]1O[C@@H](OC[C@H]2O[C@@H](Oc3c(-c4ccc(OCCO)c(OCCO)c4)oc4cc(OCCO)cc(O)c4c3=O)[C@H](O)[C@@H](O)[C@@H]2O)[C@H](O)[C@H](O)[C@H]1O` and report it.
Given back: 7.1e-05
